target: UniProtKB P11712; experiment: Inhibition of CYP2C9 (unknown origin) at 10 uM relative to control; type: ADME
Sequence (P11712 whole entry): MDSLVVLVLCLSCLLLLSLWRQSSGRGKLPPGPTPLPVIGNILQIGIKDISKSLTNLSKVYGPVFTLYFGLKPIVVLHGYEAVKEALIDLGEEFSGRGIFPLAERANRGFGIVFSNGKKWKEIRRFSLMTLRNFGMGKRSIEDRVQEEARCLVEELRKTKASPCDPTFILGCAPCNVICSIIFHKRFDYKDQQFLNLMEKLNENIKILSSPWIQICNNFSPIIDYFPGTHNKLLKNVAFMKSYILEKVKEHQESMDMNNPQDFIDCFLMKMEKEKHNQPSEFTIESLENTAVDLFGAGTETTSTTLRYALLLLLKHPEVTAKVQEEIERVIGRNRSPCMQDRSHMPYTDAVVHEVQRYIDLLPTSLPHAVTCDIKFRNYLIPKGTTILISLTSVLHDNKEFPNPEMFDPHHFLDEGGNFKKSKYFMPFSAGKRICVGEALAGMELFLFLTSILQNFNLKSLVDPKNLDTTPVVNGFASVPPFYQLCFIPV
measurement_label: inhibition at 10 µM (%)

I: CCN1CCN(c2ccc(Nc3ncc4scc(-c5cccc([N+](=O)[O-])c5)c4n3)cc2)CC1
II: CN(c1ncccc1CNc1nc(Nc2ccc3c(c2)CC(=O)N3)ncc1C(F)(F)F)S(C)(=O)=O
(Q) Kindly identify which of I and II has the larger recorded inhibition at 10 µM value. Choose, then provide that item's label.
(A) I

A: CCN1CCN(c2ccc(Nc3ncc4scc(-c5cccc(N6CCCS6(=O)=O)c5)c4n3)cc2)CC1
B: CNC(=O)c1ccccc1Nc1nc(Nc2ccc(N3CCOCC3)cc2OC)ncc1Cl
(Q) Kindly identify which of A and B has the larger recorded inhibition at 10 µM value. Choose, then provide that item's label.
(A) A

I: CCN1CCN(c2ccc(Nc3ncc4scc(-c5ccc6cc[nH]c6c5)c4n3)cc2)CC1
II: CS(=O)(=O)Nc1cccc(-c2csc3cnc(Nc4ccc(N5CCNCC5)cc4)nc23)c1
(Q) Just tell me: smaller inhibition at 10 µM value, I or II ? Choose, then provide that item's label.
(A) II
(II: 63.2%, I: 91.7%)
